Assay: protein stability index of a GFP-peptide fusion (yeast GPS) (PSI 1-4); higher = more stable; sorted into four equal gates, so the index is relative within each strain
Conditions: san1∆
Reported protein stability index by item:
Measure: protein stability index

NSDDIIDVDMDASPAPS [SRB5]; 2.78
TRSHFNALYDTLLESNL [RPN6]; 2.65
HEDLVNSIESKNLSLQT [COR1]; 3.09
KGSRFISTLQVKLYGRE [RPB2]; 2.58
VRCVNCSKSIPKDKAIK [RPS26A]; 2.77
EKVTRYNRHKLQELIVN [RPO31]; 1.82
RLRKRVTIIPLDKIYTR [SMC2]; 1.84
PAIPPVIDLEKIKFDES [BRR2]; 2.67
ETAERNIIQAKRDAKAA [RPL7A]; 1.93
ERSSKRLAKKPSMKKIK [SIR3]; 3.06
LQPIFKGEEAKLDSKKT [SSN3]; 3.54
AYRTDVIQALGGIETIL [PRP8]; 1.46
VLQEYRLTKQAFDWVLS [RPO21]; 2.89
CAINSKSRGSDLQYLGE [RRP6]; 2.7
APVEVQEDFEVVEEFTP [RPS5]; 3.02
